Measured values drawn from patent US20190083585 for this set.

# tested-on: T1, fluorescently quenched α-gliadin hexapeptide analogue QXL520-PQPQLP-K(5-FAM)-NH2
# T1 chain: PQPQLP
Listed here: items and their measured Fold Change in Activity of PQ Hydrolysis Relative to Wild Type Kumamolysin-As.
endpoint-name: Fold Change in Activity of PQ Hydrolysis Relative to Wild Type Kumamolysin-As (fold)

protein: Kumamolisin-As N291D, D293A, G319S, S354N, D358G, Q361D, D368H (protein) AAPTAYTPLDVAQAYQFPEGLDGQGQCIAIIELGGGYDEASLAQYFASLGVPAPQVVSVSVDGASNQPTGDPSGPDGEVELDIEVAGALAPGAKFAVYFAPDTAAGFLDAITTAIHDPTLKPSVVSISWSGPEDSWTSAAIAAMNRAFLDAAALGVTVLAAAGDNGSTGGEDDGLYHVHFPAASPYVLACGGTRLVASGGRIAQETVWNDGPDGGATGGGVSRIFPLPAWQEHANVPPSANPGASSGRGVPDLAGNADPATGYEVVIDGEATVIGGTSAVAPLFAALVARINQKLGKAVGYLNPTLYQLPADVFHDITEGNNDIANRAQIYQAGPGWDPCTGLGSPIGVRLLQALLPSASQPQPGSTENLYFQSGALEHHHHHH
measured-number: 58
//
protein: Kumamolisin-As D293A (protein) AAPTAYTPLDVAQAYQFPEGLDGQGQCIAIIELGGGYDEASLAQYFASLGVPAPQVVSVSVDGASNQPTGDPSGPDGEVELDIEVAGALAPGAKFAVYFAPNTAAGFLDAITTAIHDPTLKPSVVSISWGGPEDSWTSAAIAAMNRAFLDAAALGVTVLAAAGDSGSTDGEQDGLYHVDFPAASPYVLACGGTRLVASGGRIAQETVWNDGPDGGATGGGVSRIFPLPAWQEHANVPPSANPGASSGRGVPDLAGNADPATGYEVVIDGEATVIGGTSAVAPLFAALVARINQKLGKAVGYLNPTLYQLPADVFHDITEGNNDIANRAQIYQAGPGWDPCTGLGSPIGVRLLQALLPSASQPQPGSTENLYFQSGALEHHHHHH
measured-number: 3
